Provide the recorded Peptides and related substances (≥0.05%) [Area %] for the entries that follow.
TEST PROTOCOL: In-use chemical stability of vaccine emulsions by UPLC/MS after extraction of peptides
Assay type: physicochemical
PROTOCOL CONDITIONS: peak in reconstituted P53-DP-5P, in-use storage t = 2 h
Bridge positions count the residues as written; N and C are the ends. Ends that are not written are not given here.
Express the result in Area % but write the number alone.

Query block: Which value of Peptides and related substances (≥0.05%) [Area %] has been reported for SEQ ID NO 203 intramolecular disulfide: related substance: intramolecular disulfide of the peptide set forth in SEQ ID NO: 203 (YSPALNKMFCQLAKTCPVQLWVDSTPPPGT; disulfide 10-16 (inferred)) in the records?
Result block: 1.54

Query block: And what about the substance SEQ ID NO 191: P53-derived synthetic long peptide, component of P53 DP-5P (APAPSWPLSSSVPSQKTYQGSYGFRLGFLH) ?
Result block: 28.81

Query block: And what about the substance SEQ ID NO 193: P53-derived synthetic long peptide, component of P53 DP-5P (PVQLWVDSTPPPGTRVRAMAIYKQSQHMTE) ?
Result block: 22.31

---

Provide the recorded Related substances (≥0.05%) [Area %] for the entries that follow.
TEST PROTOCOL: In-use chemical stability of vaccine emulsions by UPLC/MS after extraction of peptides
Type: physicochemical
PROTOCOL CONDITIONS: peak in reconstituted PRAME-DP-5P, in-use storage t = 0 h
Procedure: For samples showing complete dissolution, an emulsion stability of >2 hours, and a chemical stability of the Drug Product solutions (without additional dilution) of >2 hours, the in-use chemical stability of the vaccine emulsions with Montanide ISA 51 VG was monitored with UPLC/MS. For analysis of chemical stability of the reconstituted and emulsified Drug Products, samples were analyzed at various time points, at least up to 2 hours after dissolution. […]
Express the result in Area % but write the number alone.

Query block: Which value of Related substances (≥0.05%) [Area %] has been reported for SEQ ID NO 160: PRAME-derived peptide, component of PRAME DP-5P (LRRLLLSHIHASSYISPEKEEQYIAQFTSQFLS) in the records?
Result block: 13.61

Query block: And what about the substance SEQ ID NO 155: PRAME-derived peptide, component of PRAME DP-5P (WTVWSGNRASLYSFPEPEAAQPMTKKRKVDGLST) ?
Result block: 23.35

Query block: And what about the substance SEQ ID NO 153: PRAME-derived peptide, component of PRAME DP-5P (LETFKAVLDGLDVLLAQEVRPRRWKLQVLDLRK) ?
Result block: 21.89

Query block: And what about the substance SEQ ID NO 156: PRAME-derived peptide, component of PRAME DP-5P (IPVEVLVDLFLKEGACDELFSYLIEKVKRKKNVLR) ?
Result block: 10.56

Query block: And what about the substance SEQ ID NO 166: PRAME-derived peptide, component of PRAME DP-5P (SYEDIHGTLHLERLAYLHARLRELLCELGRPSMV) ?
Result block: 13.49

---

TEST PROTOCOL: In-use chemical stability of vaccine emulsions by UPLC/MS after extraction of peptides
Format: physicochemical
PROTOCOL CONDITIONS: peak in reconstituted P53-DP-5P, in-use storage t = 1 h
Experimental: For samples showing complete dissolution, an emulsion stability of >2 hours, and a chemical stability of the Drug Product solutions (without additional dilution) of >2 hours, the in-use chemical stability of the vaccine emulsions with Montanide ISA 51 VG was monitored with UPLC/MS. For analysis of chemical stability of the reconstituted and emulsified Drug Products, samples were analyzed at various time points, at least up to 2 hours after dissolution. […]
Bridge positions count the residues as written; N and C are the ends. Ends that are not written are not given here.
Provide the recorded Peptides and related substances (≥0.05%) [Area %] for the entries that follow.
Express the result in Area % but write the number alone.

Query block: Which value of Peptides and related substances (≥0.05%) [Area %] has been reported for SEQ ID NO 191: P53-derived synthetic long peptide, component of P53 DP-5P (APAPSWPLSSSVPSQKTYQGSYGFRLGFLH) in the records?
Result block: 28.75

Query block: And what about the substance SEQ ID NO 203 intramolecular disulfide: related substance: intramolecular disulfide of the peptide set forth in SEQ ID NO: 203 (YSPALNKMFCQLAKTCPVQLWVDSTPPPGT; disulfide 10-16 (inferred)) ?
Result block: 1.05

Query block: And what about the substance SEQ ID NO 203: P53-derived synthetic long peptide, component of P53 DP-5P (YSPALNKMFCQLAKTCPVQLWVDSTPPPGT) ?
Result block: 16.73
